Assign IC50 to each entry below.
target: CBP (Homo sapiens (Human)); assay: HTRF biochemical assay for CBP activity (TR-FRET, bromodomain); type: binding; settings: geometric mean, 10-point 3-fold dilution 33 μM to 1.7 nM, read-out: BROMO IC50 TRF TB CBP (μM gmean)
Sequence (Q92793 1085-1192): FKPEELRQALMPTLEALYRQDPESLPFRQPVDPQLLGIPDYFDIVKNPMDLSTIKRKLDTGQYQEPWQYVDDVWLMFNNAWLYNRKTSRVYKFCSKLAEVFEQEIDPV

In: Fill in: IC50 of COC(=O)N1CCc2c([C@@H]3CCOC3)cc3c(nc([C@H]4CC[C@H](C(=O)O)CC4)n3[C@@H](C)Cc3ccccc3)c2C1 is ___
Out: 0.001 to 0.01 µM

In: Which value of IC50 has been reported for COC(=O)N1CCc2ccc3c(nc(C4CCN(S(=O)(=O)NC(C)=O)CC4)n3[C@@H](C)Cc3ccccc3)c2C1 in the records?
Out: 0.01 to 0.1 µM

In: Value lookup for IC50; key = COC(=O)N1CCc2ccc3c(nc([C@H]4CC[C@H](C(=O)O)CC4)n3[C@@H]3CCc4ccccc4C3)c2C1
Out: 0.1 to 1 µM

In: For the compound COC(=O)N1CCc2ccc3c(nc(C4CCN(S(N)(=O)=O)CC4)n3[C@@H](C)Cc3ccccc3)c2C1 , what IC50 is on record?
Out: 0.001 to 0.01 µM

In: Any idea what its IC50 is? The compound is COC(=O)N1CCc2ccc3c(nc(N4CCN(C(=O)CO)CC4)n3[C@@H](C)Cc3ccccc3)c2C1
Out: 0.001 to 0.01 µM

In: Fill in the blank: the reported IC50 of COC(=O)N1CCc2ccc3c(nc(C4CCCCC4)n3C[C@H](C(=O)NS(C)(=O)=O)c3ccccc3)c2C1 (single isomer, unassigned) is ____.
Out: 0.001 to 0.01 µM
